Data origin: patent US12304912B2

System: constitutive ERK phosphorylation in HCT-116 cells
Test: HCT-116 AlphaLISA SureFire pERK1/2 cellular assay
Assay type: cell-based, human
Conditions: Homo sapiens, HCT-116; HCT116 cells, 2 hr, absolute IC50; read-out: pERK HCT116 (2 hr) Abs pIC50 (converted)
Structures can show the parent of a compound that is named as a salt.
Threshold 0.2 µM: IC50 strictly smaller gives yes, otherwise no.

Answered cases to consult:
1) O=C1CCc2c(Oc3ccc4c(c3)CN(C(=O)Nc3ccc(C(F)(F)F)cc3)CC4)ccnc2N1 : yes
2) CN(C)c1ccc2[nH]c(C3COc4ccc(Oc5ccnc6c5CCC(=O)N6)cc4C3)nc2c1 (centres unmarked) : no
3) Cc1cc2nc(C3COc4ccc(Oc5ccnc6c5CCC(=O)N6)cc4C3)[nH]c2cc1C (centres unmarked) : yes
4) O=C1CCc2c(Oc3ccc4c(c3)CN(c3nc(-c5ccccc5)n[nH]3)CC4)ccnc2N1 [Compound 44, hydrochloride] : no
5) O=C(Nc1cc(Oc2ccc3c(c2)CC(c2nc(-c4ccccc4)c[nH]2)CO3)ccn1)C1CC1 (centres unmarked) : yes

Now take the following compound into account.
Ask: Would you kindly verify if IC50 of N#Cc1ccc2[nH]c(C3COc4ccc(Oc5ccnc6c5CCC(=O)N6)cc4C3)nc2c1 (centres unmarked) is strictly less than 0.2 µM?
Result: no

----------
Test: Microsomal stability assay, human liver microsomes (HLM)
Assay type: in vitro ADME
Conditions: 0.5 mg/mL protein, 1 μM substrate, 37° C.
Recorded microsomal CLint at 1 μM by entry
Record the value in µL/min/mg, omitting the unit from your answer.

Worked examples, 5 compounds total:
1. CC(C)CCc1c[nH]c(C2COc3ccc(Oc4ccnc5c4CCC(=O)N5)cc3C2)n1 (stereo not shown) [Compound 116] : 277
2. Cc1cc(-c2c[nH]c(C3COc4ccc(Oc5ccnc6c5CCC(=O)N6)cc4C3)n2)n(CC(F)(F)F)n1 (stereo not shown) [Compound 126] : 121
3. CC(C)(C)CCc1c[nH]c(C2COc3ccc(Oc4ccnc5c4CCC(=O)N5)cc3C2)n1 (stereo not shown) [Compound 115] : 277
4. O=C(CN1CC[C@@H](O)C1)Nc1cc(Oc2ccc3c(c2)CC(c2nc(-c4ccccc4)c[nH]2)CO3)ccn1 (stereo partly shown) [Compound 145] : 57.2
5. O=C(Cn1cncn1)Nc1cc(Oc2ccc3c(c2)CC(c2nc(-c4ccccc4)c[nH]2)CO3)ccn1 (stereo not shown) [Compound 154] : 22.8

Ask: Please look up its microsomal CLint at 1 μM: c1ccc(-c2c[nH]c(C3COc4ccc(Oc5ccnc(Nc6ccccn6)c5)cc4C3)n2)cc1 (stereo not shown) [Compound 140]
Result: 48.7

Ask: Reported microsomal CLint at 1 μM, compound CN1CCN(CC(=O)Nc2cc(Oc3ccc4c(c3)CC(c3nc(-c5ccccc5)c[nH]3)CO4)ccn2)CC1 (stereo not shown) [Compound 146] : ____
Result: 33.4

----------
Assay: Plasma protein binding assay, mouse plasma (mPPB)
Assay type: in vitro ADME
Conditions: 5 μM, equilibrium dialysis 4 hours at 37° C.
quantity: mPPB (% free)
// note: answer is a bare numeric in % free

1. Cc1cc(-c2c[nH]c(C3COc4ccc(Oc5ccnc6c5CCC(=O)N6)cc4C3)n2)n(C2CC2)n1 (stereo not shown) : 2.0

Ask: Given CCc1cc(-c2c[nH]c(C3COc4ccc(Oc5ccnc6c5CCC(=O)N6)cc4C3)n2)n(C2CC2)n1 (stereo not shown) , state its recorded mPPB (% free).
Result: 1.6

Ask: # get_value(readout='mPPB (% free)', item= O=C(Nc1cc(Oc2ccc3c(c2)CC(c2nc(-c4ccccc4)c[nH]2)CO3)ccn1)C1CC1 (racemic) )
Result: 0.2

Ask: What value of mPPB (% free) has been recorded for this entry: CN1CCN(CC(=O)Nc2cc(Oc3ccc4c(c3)CC(c3nc(-c5ccccc5)c[nH]3)CO4)ccn2)CC1 (stereo not shown)
Result: 0.7
